# Test system: TEAD transcriptional activity
# method-description: Inhibition of TEAD-driven transcription (8×GTIIC-luciferase reporter assay)
# Format: cell-based
# stated-conditions: 40 μM at 24 hour treatment
attribute-measured: inhibition at 40 µM (%)
# output: bare number, implied unit %

A selection of reference data follows.
C=CC(=O)N1CCC[C@@H](Oc2cccc(C(F)(F)F)c2)C1 [Compound I-21] = 70
C=CC(=O)N1CC[C@H](Nc2cc(C(F)(F)F)cc(C(F)(F)F)c2)C1 [Compound I-50] = 90
O=C(CCl)N1CC(c2cccc(C(F)(F)F)c2)c2ccccc21 (stereo not shown) [Compound I-35] = 70

inhibition at 40 µM lookup needed for O=C(CCl)N1CCC(Nc2cccc(C(F)(F)F)c2)C1 (stereo not shown) [Compound I-10] , thanks.
90

inhibition at 40 µM lookup needed for CCC(=O)N1CCC(Nc2cccc(C(F)(F)F)c2)C1 (stereo not shown) [Compound I-27] , thanks.
70

inhibition at 40 µM lookup needed for O=C(CCl)N1CCC[C@@H](Oc2cccc(C(F)(F)F)c2)C1 [Compound I-20] , thanks.
70

inhibition at 40 µM lookup needed for C=CC(=O)N1CC[C@H](N(C)c2cccc(C(F)(F)F)c2)C1 [Compound I-48] , thanks.
50
